Tested on: RPMI-8226
Assay: ATP luminescence proliferation assay, RPMI-8226
Format: cell-based, human
Conditions: ATP luminescence, RPMI-8226, 72 h incubation; read-out: EC50 RPMI-8226 (72 h)
EC50 strictly less than 5 nM = criterion met. Otherwise criterion not met.

Check out these entries, answers already filled in.
compound: CC[C@H](C)[C@H](NC(=O)[C@H]1CCCCN1C)C(=O)N(C)[C@H](C[C@@H](OC)c1nc(C(=O)N[C@@H](Cc2ccccc2)C(=O)OC)cs1)C(C)C
label_class: criterion not met
//
compound: CC[C@H](C)[C@H](NC(=O)[C@H]1CCCCN1C)C(=O)N(C)[C@H](C[C@@H](OC(C)=O)c1nc(C(=O)N[C@@H](Cc2ccc(N)cc2)C(=O)O)cs1)C(C)C
label_class: criterion not met
//
compound: CCC[C@H](NC(=O)[C@H](Cc1ccccc1)NC(=O)c1csc([C@@H](C[C@H](C(C)C)N(C)C(=O)[C@@H](NC(=O)[C@H]2CCCCN2C)[C@@H](C)CC)OC)n1)C(=O)OC
label_class: criterion not met

input: Is EC50 of CC[C@H](C)[C@H](NC(=O)[C@H]1CCCCN1C)C(=O)N(COC(=O)CC(C)C)[C@H](C[C@@H](OC(C)=O)c1nc(C(=O)N[C@@H](Cc2ccccc2)C[C@H](C)C(=O)O)cs1)C(C)C [Tub D, tubulysin D, reference compound] strictly below 5 nM?
output: criterion met

input: Is EC50 of "CC[C@H](C)[C@H](NC(=O)[C@H]1CCCCN1C)C(=O)N(COC(=O)CC(C)C)[C@H](C[C@@H](O)c1nc(C(=O)N[C@@H](Cc2ccccc2)C(=O)OC)cs1)C(C)C" strictly below 5 nM?
output: criterion not met

input: Is EC50 of "CC[C@H](C)[C@H](NC(=O)[C@H]1CCCCN1C)C(=O)N(COC(=O)CC(C)C)[C@H](C[C@@H](OC(C)=O)c1nc(C(=O)N[C@@H](Cc2ccccc2)C(=O)OC)cs1)C(C)C" strictly below 5 nM?
output: criterion met

input: Is EC50 of CC[C@H](C)[C@H](NC(=O)[C@H]1CCCCN1C)C(=O)N(C)[C@H](C[C@@H](OC)c1nc(C(=O)N[C@@H](Cc2ccc(N)cc2)CC(C)C(=O)O)cs1)C(C)C (stereo partly shown) strictly below 5 nM?
output: criterion not met

----------
Tested on: SW-620
Assay: ATP luminescence proliferation assay, SW-620
Format: cell-based, human
Conditions: ATP luminescence, SW-620, 96 h incubation; read-out: EC50 SW-620 (96 h)
EC50 strictly less than 20 nM = true (1). Otherwise false (0).

compound: CC[C@H](C)[C@H](NC(=O)[C@H]1CCCCN1C)C(=O)N(COC(=O)CC(C)C)[C@H](C[C@@H](OC(C)=O)c1nc(C(=O)N[C@@H](Cc2ccccc2)C(=O)OC)cs1)C(C)C [Compound 29]
label_class: true (1)
--
compound: CC[C@H](C)[C@H](NC(=O)[C@H]1CCCCN1C)C(=O)N(COC(=O)CC(C)C)[C@H](C[C@@H](O)c1nc(C(=O)N[C@@H](Cc2ccccc2)C(=O)OC)cs1)C(C)C [Compound 28]
label_class: false (0)
--
compound: CC[C@H](C)[C@H](NC(=O)[C@H]1CCCCN1C)C(=O)N(C)[C@H](C[C@@H](OC)c1nc(C(=O)N[C@@H](Cc2ccccc2)C(=O)OC)cs1)C(C)C [Compound 16]
label_class: false (0)
--
compound: CC[C@H](C)[C@H](NC(=O)[C@H]1CCCCN1C)C(=O)N(COC(=O)CC(C)C)[C@H](C[C@@H](OC(C)=O)c1nc(C(=O)N[C@@H](Cc2ccccc2)C[C@H](C)C(=O)O)cs1)C(C)C [Tub D, tubulysin D, reference compound]
label_class: true (1)
--
compound: CC[C@H](C)[C@H](NC(=O)[C@H]1CCCCN1C)C(=O)N(COC)[C@H](C[C@@H](OC)c1nc(C(=O)N[C@@H](Cc2ccccc2)C(=O)OC)cs1)C(C)C [Compound 29c]
label_class: true (1)
--
compound: CC[C@H](C)[C@H](NC(=O)[C@H]1CCCCN1C)C(=O)N(C)[C@H](C[C@@H](OC)c1nc(C(=O)N[C@@H](Cc2ccc(N)cc2)CC(C)C(=O)O)cs1)C(C)C (some centres unmarked) [Compound 51]
label_class: true (1)

input: Is EC50 of CC[C@H](C)[C@H](NC(=O)[C@H]1CCCCN1C)C(=O)N(C)[C@H](C[C@@H](OC(C)=O)c1nc(C(=O)N[C@@H](Cc2ccc(N)cc2)C(=O)O)cs1)C(C)C [Compound 56] strictly below 20 nM?
output: false (0)

input: Is EC50 of CCC[C@H](NC(=O)[C@H](Cc1ccccc1)NC(=O)c1csc([C@@H](C[C@H](C(C)C)N(C)C(=O)[C@@H](NC(=O)[C@H]2CCCCN2C)[C@@H](C)CC)OC)n1)C(=O)OC [Compound 19] strictly below 20 nM?
output: true (1)
